Experiment: Antiproliferative activity against human PANC1 cells at 30 uM after 72 hrs by MTT assay
Format: functional
Settings: PANC-1, 72 h
Field: inhibition at 30 µM. Provide a value for each of the compounds that follow.
Put down the number, then write its unit next to it.

CC(C)(C)OC(=O)Nc1ccc(OCCCOc2no[n+]([O-])c2S(=O)(=O)c2ccccc2)c(C(=O)Oc2ccc(-c3cc(=S)ss3)cc2)c1 : 97.4%

Okay, here is my list. What is inhibition at 30 µM for each of these?
1. O=C(Nc1cccc(C(F)(F)F)c1)Nc1ccc(OC(=O)CCCO[N+](=O)[O-])c(C(=O)Oc2ccc(-c3cc(=S)ss3)cc2)c1
2. CC(C)(C)OC(=O)Nc1ccc(OCCOc2no[n+]([O-])c2S(=O)(=O)c2ccccc2)c(C(=O)Oc2ccc(-c3cc(=S)ss3)cc2)c1
3. Nc1ccc(OCCOc2no[n+]([O-])c2S(=O)(=O)c2ccccc2)c(C(=O)Oc2ccc(-c3cc(=S)ss3)cc2)c1
4. Nc1ccc(OCCCOc2no[n+]([O-])c2S(=O)(=O)c2ccccc2)c(C(=O)Oc2ccc(-c3cc(=S)ss3)cc2)c1
5. O=C(Nc1ccc(OC(=O)CCCO[N+](=O)[O-])c(C(=O)Oc2ccc(-c3cc(=S)ss3)cc2)c1)Nc1ccc(F)cc1F

-5.71%
97.1%
96.6%
97.5%
-14.8%

Given `CC(C)(C)OC(=O)Nc1ccc(OCCOCCOc2no[n+]([O-])c2S(=O)(=O)c2ccccc2)c(C(=O)Oc2ccc(-c3cc(=S)ss3)cc2)c1` , state its recorded inhibition at 30 µM. 97.9%
